All values here come from patent US7935823B2.

Each entry below lists one item and its recorded inhibition at 10 µM value.
# TARGET_OR_TEST_SYSTEM: butyrylcholine esterase (BuChE) (Homo sapiens)
# Sequence (P06276 29-602): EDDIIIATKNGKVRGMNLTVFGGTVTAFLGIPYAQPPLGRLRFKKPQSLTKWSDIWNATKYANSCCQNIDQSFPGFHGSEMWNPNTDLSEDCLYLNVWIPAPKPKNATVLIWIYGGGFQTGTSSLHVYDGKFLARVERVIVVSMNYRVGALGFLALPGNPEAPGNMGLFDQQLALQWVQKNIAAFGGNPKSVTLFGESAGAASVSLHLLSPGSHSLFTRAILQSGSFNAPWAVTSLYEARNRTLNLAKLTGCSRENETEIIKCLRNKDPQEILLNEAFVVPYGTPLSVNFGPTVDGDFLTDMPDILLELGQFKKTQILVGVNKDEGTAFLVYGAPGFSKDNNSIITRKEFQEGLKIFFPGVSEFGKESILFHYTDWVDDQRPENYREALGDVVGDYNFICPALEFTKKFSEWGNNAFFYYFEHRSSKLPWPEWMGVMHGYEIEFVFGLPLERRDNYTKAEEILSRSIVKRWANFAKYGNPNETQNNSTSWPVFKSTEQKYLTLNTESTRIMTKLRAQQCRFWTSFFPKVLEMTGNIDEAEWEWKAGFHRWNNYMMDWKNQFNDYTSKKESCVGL
# MEASUREMENT_PROTOCOL: Butyrylcholine esterase assay
# Assay type: biochemical
# SETUP_CONDITIONS: compound concentration 10 uM; human serum enzyme; 560 uM S-butyrylthiocholine
MEASUREMENT_NAME: inhibition at 10 µM (%)

# RECORD_SMILES, MEASUREMENT_NAME, RESULT_VALUE
data = [
    ("CN1CCc2c(c3cc(F)cc(F)c3n2CCc2ccc(C(F)(F)F)nc2)C1", "inhibition at 10 µM", 20),
    ("CN1CCc2c(c3ccccc3n2CCc2ccc(C(F)(F)F)nc2)C1", "inhibition at 10 µM", 65),
    ("COc1ccc2c(c1)c1c(n2CCc2ccc(C(F)(F)F)nc2)CCN(C)C1", "inhibition at 10 µM", 99),
    ("CCN1CCc2c(c3ccccc3n2CCc2cncc(F)c2)C1", "inhibition at 10 µM", 66),
    ("CCN1CCc2c(c3cc(Cl)ccc3n2CCc2cncc(F)c2)C1", "inhibition at 10 µM", 94),
    ("CN1CCc2c(c3cc(F)cc(F)c3n2CCc2cncc(F)c2)C1", "inhibition at 10 µM", 31),
    ("CN1CCc2c(c3cc(F)ccc3n2CCc2ccc(C(F)(F)F)nc2)C1", "inhibition at 10 µM", 34),
    ("CN1CCc2c(c3cc(Cl)ccc3n2CCc2cncc(F)c2)C1", "inhibition at 10 µM", 91),
    ("Cc1ccc2c(c1)c1c(n2CCc2cncc(F)c2)CCN(C)C1", "inhibition at 10 µM", 87),
    ("COc1ccc2c(c1)c1c(n2CCc2cncc(F)c2)CCN(C)C1", "inhibition at 10 µM", 99),
    ("CN1CCc2c(c3cc(Cl)ccc3n2CCc2ccc(C(F)(F)F)nc2)C1", "inhibition at 10 µM", 97),
    ("CCN1CCc2c(c3cc(F)ccc3n2CCc2cncc(F)c2)C1", "inhibition at 10 µM", 53),
    ("CN1CCc2c(c3ccccc3n2CCc2cncc(F)c2)C1", "inhibition at 10 µM", 75),
    ("CN1CCc2c(c3cc(C(F)(F)F)ccc3n2CCc2cncc(F)c2)C1", "inhibition at 10 µM", 95),
    ("CCN1CCc2c(c3cc(Cl)ccc3n2CCc2ccc(C(F)(F)F)nc2)C1", "inhibition at 10 µM", 100),
]

---

# TARGET_OR_TEST_SYSTEM: 5-HT6 Receptor (Homo sapiens, UniProt P50406)
# Construct: expressed in transfected cells; host or cells: HeLa cells
# Sequence (P50406 whole entry): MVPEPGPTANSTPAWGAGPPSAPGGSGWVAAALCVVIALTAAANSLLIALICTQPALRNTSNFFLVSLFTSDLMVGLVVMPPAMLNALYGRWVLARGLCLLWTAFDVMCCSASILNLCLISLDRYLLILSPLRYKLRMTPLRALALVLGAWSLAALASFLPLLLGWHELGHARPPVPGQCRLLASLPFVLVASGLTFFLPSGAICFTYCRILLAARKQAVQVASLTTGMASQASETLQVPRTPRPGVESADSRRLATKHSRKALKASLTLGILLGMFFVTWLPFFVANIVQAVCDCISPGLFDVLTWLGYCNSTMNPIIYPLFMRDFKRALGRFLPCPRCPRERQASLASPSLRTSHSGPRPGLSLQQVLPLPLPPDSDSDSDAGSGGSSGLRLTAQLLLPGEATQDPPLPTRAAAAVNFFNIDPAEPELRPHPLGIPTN
# MEASUREMENT_PROTOCOL: Binding with 5-HT6 receptor (radioligand binding)
# SETUP_CONDITIONS: compound concentration 10 uM; ligand 1.5 nM [3H]-LSD

# COMPOUND, inhibition at 10 µM [%]
measured = [
    ("CN1CCc2c(c3cc(OC(F)(F)F)ccc3n2CCc2cncc(F)c2)C1 [compound 10]", 95),
    ("CCN1CCc2c(c3cc(F)ccc3n2CCc2cncc(F)c2)C1 [compound 14]", 88),
    ("CN1CCc2c(c3ccccc3n2CCc2cncc(F)c2)C1 [compound 1]", 90),
    ("CN1CCc2c(c3cc(C(F)(F)F)ccc3n2CCc2cncc(F)c2)C1 [compound 9]", 103),
    ("CN1CCc2c(c3cc(F)cc(F)c3n2CCc2ccc(C(F)(F)F)nc2)C1 [4-07]", 79),
    ("CN1CCc2c(c3cc(Br)ccc3n2CCc2cncc(F)c2)C1 [compound 5]", 103),
    ("CCN1CCc2c(c3cc(Cl)ccc3n2CCc2cncc(F)c2)C1 [compound 15]", 99),
    ("Cc1ccc2c(c1)c1c(n2CCc2cncc(F)c2)CCN(C)C1 [compound 2]", 102),
    ("CN1CCc2c(c3cc(F)ccc3n2CCc2ccc(C(F)(F)F)nc2)C1 [4-03]", 72),
    ("Cc1ccc2c(c1)c1c(n2CCc2ccc(C(F)(F)F)nc2)CCN(C)C1 [4-02]", 97),
    ("CCN1CCc2c(c3cc(Cl)ccc3n2CCc2ccc(C(F)(F)F)nc2)C1 [4-08]", 77),
    ("CN1CCc2c(c3cc(Cl)ccc3n2CCc2cncc(F)c2)C1 [compound 4]", 103),
    ("CN1CCc2c(c3cc(Cl)ccc3n2CCc2ccc(C(F)(F)F)nc2)C1 [4-04]", 100),
    ("COc1ccc2c(c1)c1c(n2CCc2ccc(C(F)(F)F)nc2)CCN(C)C1 [I. 4-06]", 72),
    ("CCN1CCc2c(c3ccccc3n2CCc2cncc(F)c2)C1 [compound 11]", 77),
    ("CN1CCc2c(c3cc(F)ccc3n2CCc2cncc(F)c2)C1 [compound 3]", 99),
    ("CN1CCc2c(c3cc(F)cc(F)c3n2CCc2cncc(F)c2)C1 [compound 8]", 91),
    ("COc1ccc2c(c1)c1c(n2CCc2cncc(F)c2)CCN(C)C1 [compound 6]", 96),
    ("CN1CCc2c(c3ccccc3n2CCc2ccc(C(F)(F)F)nc2)C1 [4-01]", 67),
    ("CCN1CCc2c(c3cc(C)ccc3n2CCc2cncc(F)c2)C1 [compound 12]", 101),
]

---

# TARGET_OR_TEST_SYSTEM: butyrylcholine esterase (BuChE) (Homo sapiens)
# MEASUREMENT_PROTOCOL: Butyrylcholine esterase assay
# Assay type: biochemical
# SETUP_CONDITIONS: compound concentration 10 uM; human serum enzyme; 560 uM S-butyrylthiocholine
# Protocol: Butyrylcholine Esterase Assay. The assay was conducted as follows [Ellman G. L., Courtney K. D., Andres Jr. V., and Featherstone R. N. A new and rapid colorimetric determination of acetylcholinesterase activity.

# RECORD_SMILES, TARGET_OR_TEST_SYSTEM, inhibition at 10 µM (%)
measured = [
    ("CN1CCc2c(c3cc(OC(F)(F)F)ccc3n2CCc2cncc(F)c2)C1", "butyrylcholine esterase (BuChE) (Homo sapiens)", 100),
    ("Cc1ccc2c(c1)c1c(n2CCc2ccc(C(F)(F)F)nc2)CCN(C)C1", "butyrylcholine esterase (BuChE) (Homo sapiens)", 95),
    ("CN1CCc2c(c3cc(F)ccc3n2CCc2cncc(F)c2)C1", "butyrylcholine esterase (BuChE) (Homo sapiens)", 58),
    ("CN1CCc2c(c3cc(Br)ccc3n2CCc2cncc(F)c2)C1", "butyrylcholine esterase (BuChE) (Homo sapiens)", 96),
    ("CCN1CCc2c(c3cc(C)ccc3n2CCc2cncc(F)c2)C1", "butyrylcholine esterase (BuChE) (Homo sapiens)", 89),
]
